Recorded values, source paper PMC4336329.

# target: human ether-à-go-go-related gene (hERG) potassium channel (human);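 also: peak tail current of the secondary pulse compared with the same well before compound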
# Sequence (Q12809 whole entry, looked up): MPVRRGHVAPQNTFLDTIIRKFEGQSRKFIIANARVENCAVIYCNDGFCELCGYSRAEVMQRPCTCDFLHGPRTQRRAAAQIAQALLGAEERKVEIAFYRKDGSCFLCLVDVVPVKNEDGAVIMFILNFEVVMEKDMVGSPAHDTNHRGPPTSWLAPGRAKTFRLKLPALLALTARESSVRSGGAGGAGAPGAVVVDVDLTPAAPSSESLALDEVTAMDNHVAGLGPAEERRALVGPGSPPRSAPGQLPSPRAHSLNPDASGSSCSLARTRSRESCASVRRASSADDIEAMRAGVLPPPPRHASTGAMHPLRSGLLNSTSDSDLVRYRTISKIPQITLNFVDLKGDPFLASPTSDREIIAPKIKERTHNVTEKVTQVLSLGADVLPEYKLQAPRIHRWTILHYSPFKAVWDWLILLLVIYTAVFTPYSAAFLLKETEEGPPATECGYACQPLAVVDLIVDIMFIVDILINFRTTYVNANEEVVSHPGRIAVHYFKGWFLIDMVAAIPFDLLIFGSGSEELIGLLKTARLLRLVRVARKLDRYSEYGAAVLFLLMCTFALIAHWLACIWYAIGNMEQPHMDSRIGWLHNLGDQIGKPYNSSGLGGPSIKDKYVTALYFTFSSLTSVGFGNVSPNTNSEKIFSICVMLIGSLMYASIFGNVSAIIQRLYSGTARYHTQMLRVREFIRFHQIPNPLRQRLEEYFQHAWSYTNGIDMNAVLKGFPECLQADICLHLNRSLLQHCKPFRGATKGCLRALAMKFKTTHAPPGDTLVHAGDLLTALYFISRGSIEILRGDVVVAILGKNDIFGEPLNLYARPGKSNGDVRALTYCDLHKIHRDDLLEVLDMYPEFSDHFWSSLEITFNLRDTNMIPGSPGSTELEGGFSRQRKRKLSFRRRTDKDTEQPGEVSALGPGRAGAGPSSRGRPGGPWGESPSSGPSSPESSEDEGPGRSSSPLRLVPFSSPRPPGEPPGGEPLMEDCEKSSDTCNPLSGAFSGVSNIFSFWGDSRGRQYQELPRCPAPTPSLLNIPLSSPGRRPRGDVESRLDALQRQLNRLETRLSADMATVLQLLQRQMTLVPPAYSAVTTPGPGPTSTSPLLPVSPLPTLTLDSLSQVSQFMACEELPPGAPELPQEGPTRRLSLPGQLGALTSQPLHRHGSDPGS
# assay: primary screen, population patch clamp on CHO cells stably expressing hERG; higher = less effect of the substance
The whole screen tested about 310,000 compounds, of which about 14,000 (4.5%) showed an effect of 50% or more. Effects have a minus sign here. Only a selection was taken, and strong results are over-represented in it overall.
measurement name: hERG current change (%, negative = inhibition) at 10uM (%)
Give a bare numeral; the unit % is implied.

>>> recorded_value("COc1ccc(C(=O)N(C)Cc2ccccc2)cc1Br")
-8.29
>>> recorded_value("COc1cccc(N(CC(=O)NCc2ccco2)C(=O)CCC(=O)Nc2nccs2)c1")
1.6
>>> recorded_value("COc1cccc(C2C=C(c3ccc(OC)cc3OC)Nc3nnnn32)c1 (stereo not shown)")
1.76
>>> recorded_value("CSc1ccc(/C=C/C(=O)c2ccc(NC(C)=O)cc2)cc1")
12.6

stdin: Item: Cc1ccc(S(=O)(=O)N2CCC(=O)N(C(COCc3ccc(Cl)cc3)C(C)C)CC2)cc1 (stereo not shown) Test system: human ether-à-go-go-related gene (hERG) potassium channel (human) Read-out: hERG current change (%, negative = inhibition) at 10uM Value: ?;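 also: peak tail current of the secondary pulse compared with the same well before compound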
stdout: -51.7

stdin: Repeat for the following compound: N#CCCN(CCC#N)C(=O)C1c2ccccc2Oc2ccccc21
stdout: 14.4

stdin: Repeat for the following compound: COc1ccc(C(=O)CSc2ccc(-c3ccco3)nn2)cc1
stdout: -78.1
